IC50 values, listed per item
Test system: L-1210
PROTOCOL DESCRIPTION: Growth inhibition in suspension cell culture, L-1210
Assay type: cell-based
TEST CONTEXT: Mus musculus, L1210, 72 hours, cell count 50 percent of untreated control, read-out: ID50 (the source's name)
OBSERVABLE: IC50

[
  {
    "MOLECULE": "NC(=O)c1c[se]c([C@@H]2O[C@H](CO)[C@@H](O)[C@H]2O)n1 [COMPOUND 1]",
    "TESTED ON": "L-1210",
    "RESULT VALUE": "400 nM"
  },
  {
    "MOLECULE": "NC(=O)c1c[se]c([C@@H]2O[C@H](COP(=O)(O)O)[C@@H](O)[C@H]2O)n1 [COMPOUND 2]",
    "TESTED ON": "L-1210",
    "RESULT VALUE": "58 nM"
  }
]
